- study_system: RSV prefusion F (preF), DS-Cav1 (respiratory syncytial virus, UniProt P03420 26-513)
- test_summary: BLI, IgG on sensor, 100 nM antigen
reported_endpoint: Kd (nM)
I only need the number, in nM, no unit after it.

Below are worked cases with known answers.
ADI-41452 (antibody, V domains shown, IgG1; also called Ab 736) VH: QVQLVQSGAELKKPGASVKVSCKASGHTFATYAIHWVRQAPGQSLEWLGWINTANGDTKYSQKFRATVTIHGDTSANTVYLELSRLRSEDTAVYYCASPPLVGAINLEFWGPGTLVTVSS VL: QSVLTQPASVSGSVGQSITISCTGTSSDVGGYNSVSWYQHHPDKAPKLIIYEVSNRPSGVSHRFSGSKSGNTASLTISGLQAEDEADYYCSSYTTSDTLIFGGGTKVTVL :: 3.33
ADI-41385 (antibody, V domains shown, IgG1; also called Ab 681) VH: EVQLVESGGGVVQPGRSLRLSCAASGFTFSSYGMHWVRQAPGKGLEWVAVIWYDGNNEKYADSVKGRFTISRDNSKNTLYLQMNSLRAEDTAVYYCARPTQKYSSSWYWEDSIDYWGQGTLVTVSS VL: QSVLTQPPSVFGAPGQRVTISCTGSSSNIGAGYPVHWYQQLPGTAPKLLIYGNSNRPSGVPDRFSGSKSGTSASLAITGLQAEDEADYYCQSYDSSLSGGVVFGGGTKLTVL :: 4.52
ADI-41398 (antibody, V domains shown, IgG1; also called Ab 691) VH: EVQLLESGAEVKKPGASVKVSCKASGYTFTNYGISWVRQAPGQGLEWMGWISAYNGNTNYAQKLQGRVTMTTDTSTSTAYMELRSLRSDDTAVYYCARDGGVIAAATLGYWGQGTLVTVSS VL: EIVLTQSPLSLPVTLGQPASISCRSSQSLVYSDGNTYLSWFQQRPGQSPRRLIYKISNRDSGVPNRFSGSGSGTDFTLKISRVEAEDVGIYYCMQGIYWPPTFGQGTKVEIK :: 0.6
ADI-41377 (antibody, V domains shown, IgG1; also called Ab 674) VH: QVQLQQSGPGLVKPSQTLSLTCAISGDSVSSDSATWNWIRQSPSRGLEWLGRAYYRSKWYYDYAPSVKSRLTINPDTSKNQFSLQLTSVTPQDTAVYFCARDLPPLEYFDGSGYYFLDHWGQGTLVTVSS VL: SYELTQPPSVSVAPGQTARLSCGGHNIGSKSVQWYQQKPDQAPVLVVYDDHDRPSGIPDRFSGSNSGDMATLTISRVEAGDEADYYCQVCESGRDPMVFGGGTKVTVL :: 1.74
ADI-41370 (antibody, V domains shown, IgG1; also called Ab 667) VH: EVQLVESGGGLVKPGGSLRLSCAASGFTFSGFSMNWVRQAPGKGLEWVSSISSTSRYIYYADSVQGRFTISRDNAKNSLYLQMNSLRAEDTAVYYCARDPGGSASFVPYYYGMDVWGQGATVTVSS VL: SYELIQPPSVSVSPGQTARITCSGDALPNQYVYWYQKKPGQAPVLVIYKDTEGPLGIPERFSGSSSGTTVTLTISGVQAEDEADYYCQSADSSGTYPYVVFGGGTKLTVL :: 5.59

Pending binder:
For the binder ADI-41369 (antibody, V domains shown, IgG1; also called Ab 666) VH: EVQLVQSGGGVVQPGRSLRLSCAASGFTFSSYGMHWVRQAPGKGLEWVAVISHDGNNKYYGDSVKGRFTISRDNSKNTLHLQMNSLRGDDTAVYYCGKDPLKGDCSGGSCYQRIDYWGQGTLVTVSS VL: NFMLTQPHSVSESPGKTVTISCTGSSGRIASNYVQWYQQRPGSAPATVIYDDNQRPSGVPDRFSGSIDSSSNSASLTISGLKTEDEADYYCQSYDRSNHVIFGGGTKLTVL , what Kd is on record?
0.685
